This collection of values is drawn from patent US20250332173A1.

System: SMN2 mRNA
Experiment: RT-qPCR splicing assay, SMN2 canonical junction (CJ) mRNA
Assay type: cell-based, human
Conditions: Homo sapiens; Table 5 panel; canonical junction qPCR; compound concentration having 50% response in CJ decrease; read-out: SMN2 IC50 (decrease in CJ mRNA levels)
Exercise: for every item that follows, state its recorded IC50.

Below, each entry is followed by its recorded IC50 result.
compound=Cc1cn2nc(-c3ccc4c(=O)n([C@@H]5C[C@H]6CC[C@@H](C5)N6)ncc4c3)cc(C)c2n1 measured_result="< 100 nM"
compound=Cn1cc2cc(-c3ncc4c(=O)n(C5CCNCC5)ccc4n3)c(O)cc2n1 measured_result="< 100 nM"
compound=CCN1CCC(n2ncc3cc(-c4cc(C)c5nc(C)cn5n4)cc(F)c3c2=O)CC1 measured_result="< 100 nM"
compound="Cc1cn2cc(-c3cc(F)c4c(=O)n(C5CCOC5)cnc4c3)cc(C#N)c2n1 (centres unmarked)" measured_result="1000 to 10000 nM"
compound=Cc1cn2cc(-c3ccc4c(c3)CCN(C3CCNCC3)C4=O)cc(C)c2n1 measured_result="100 to 1000 nM"

Give one value of IC50 per listed compound.
1. Cc1nc2c(F)cc(-c3ccc4c(=O)n(C5CCN(C)CC5)cnc4c3)cc2o1
2. Cc1cn2cc(-c3cc4ccn(C5CCNC5)c(=O)c4cn3)cc(C#N)c2n1 (centres unmarked)
3. Cc1cn2cc(-c3ccc4c(=O)n(C5CCNCC5)ncc4c3)ncc2n1
4. Cc1cn2cc(-c3ncc4c(=O)n(C5CCNC5)ccc4n3)c(O)c(C)c2n1 (centres unmarked)
5. Cc1cn2cc(-c3ccc4c(=O)n(C5CCNC(C)(C)C5)cnc4c3)cc(F)c2n1 (centres unmarked)
6. Cc1cn2nc(-c3ccc4c(=O)n(C5CCNCC5)ccc4c3)cc(Oc3ccccc3)c2n1

[reply]
1. < 100 nM
2. 100 to 1000 nM
3. 100 to 1000 nM
4. 100 to 1000 nM
5. < 100 nM
6. < 100 nM

* * *

System: Target C
Experiment: RT-qPCR splicing assay panel, Target C canonical junction (CJ) mRNA
Type: cell-based, human
Settings: Homo sapiens; Table 5 panel; canonical junction qPCR; compound concentration having 50% response in CJ decrease; read-out: Target C IC50 (decrease in CJ mRNA levels)
pIC50: −log10 of the molar value.
Provide the reported pIC50 of each item.

Below, each entry is followed by its recorded pIC50 result.
compound="Cc1cn2nc(-c3ccc4c(=O)n(C5CCNCC5)ccc4c3)cc(CC(=O)O)c2n1 [Compound 531]" measurement_name=pIC50 measured_result="6.00 to 7.00"
compound="Cc1cc(-c2cc(F)c3c(=O)n(C4CCN(C)CC4)cnc3c2)cc2cn(C)nc12 [Compound 233]" measurement_name=pIC50 measured_result="5.00 to 6.00"
compound="Cc1cn2cc(-c3ccc4c(=O)n(C5CCNCC5)cnc4c3)ncc2n1 [Compound 297]" measurement_name=pIC50 measured_result="5.00 to 6.00"

Kindly consider the entry below.
[ask] Which measured pIC50 value corresponds to Cc1cn2nc(-c3cc(F)c4c(=O)n(C5CCN(C)CC5)ncc4c3)cc(C)c2n1 [Compound 539] ?
[reply] 6.00 to 7.00

* * *

System: MYB
Assay: HiBiT protein abundance assay, MYB HiBiT K562 cell line
Type: cell-based, human
Settings: HiBiT K562 cell line, 24 hours, top dose 10 μM; read-out: Effect on protein abundance, MYB (IC50 category)
pIC50: −log10 of the molar value.
Record form. Attribute: pIC50. Fill in for each entry.

Worked cases, answers included:
compound="Cc1c(O)c(-c2ncc3c(=O)n(C4CCNC4)ccc3n2)cc2cn(C)nc12 (stereo in doubt) [Compound 1439]" study_system=MYB measurement_name=pIC50 measured_result="6.00 to 7.00"
compound="Cc1c(O)c(-c2cc(F)c3c(=O)n(C4CCNC5(CC5)C4)ccc3c2)cc2cn(C)nc12 (stereo not shown) [Compound 419]" study_system=MYB measurement_name=pIC50 measured_result="5.00 to 6.00"

Below is a list of compounds. For each, state its recorded pIC50.
1. Cc1cc(-c2ccc3c(=O)n(C4CCN(C)CC4)cnc3c2F)cc2cn(C)nc12 [Compound 235]
2. Cc1cn2cc(-c3cc(F)c4c(=O)n(N5CCNCC5)cnc4c3)cc(F)c2n1 [Compound 340]
3. Cn1cc2cc(-n3cnc4cc(C5=CC6CCC(C5)N6)ccc4c3=O)ccc2n1 (stereo not shown) [Compound 160]
4. Cc1cn2cc(-c3cc4ccn(C5CCNCC5)c(=O)c4cn3)cc(F)c2n1 [Compound 1196]
5. Cc1cn2nc(-c3cc(F)c4c(=O)n([C@@H]5CCNC6(CC6)C5)cnc4c3)cc(C)c2n1 [Compound 356]
6. Cc1cn2nc(-c3cc(F)c4c(=O)n([C@@H]5CCNC6(CC6)C5)ccc4c3)cc(C)c2n1 (single isomer, unassigned) [Compound 425]
7. CN1CCC(n2cnc3cc(-c4cc(F)c5nn(C)cc5c4)ccc3c2=O)CC1 [Compound 209]
8. COC(=O)Cc1cc(-c2ccc3c(=O)n(C4CCNCC4)ccc3c2)nn2cc(C)nc12 [Compound 527]

[reply]
["5.00 to 6.00", "> 7.00", "< 5.00", "> 7.00", "> 7.00", "> 7.00", "< 5.00", "6.00 to 7.00"]

Batch request: pIC50 for each of the following compounds.
1. Cc1cn2cc(-c3cc(F)c4c(=O)n(C5CCNC6(CC6)C5)ncc4c3)cc(Cl)c2n1 (stereo not shown) [Compound 556]
2. Cn1cc2cc(-c3cc(F)c4c(=O)n(C5CCNCC5)cnc4c3)cc(F)c2n1 [Compound 314]
3. Cn1cc2cc(-c3cc4ccn(C5CCNCC5)c(=O)c4cn3)c(O)c(F)c2n1 [Compound 1199]

[reply]
1: 6.00 to 7.00; 2: 5.00 to 6.00; 3: 5.00 to 6.00
